All figures here come from patent US9877999B2.

Assay: clinical
Set-up: species or system human
Conditions: male, human, in vivo
From the text: Plasma protein binding is estimated to be approximately 90%.
Square brackets hold non-standard residues; d marks the D form. Peptide text beside a SMILES is read from it. * marks the point of attachment. dPhe(4-NHCONH2) = NC(=O)Nc1ccc(C[C@@H](N)C(=O)O)cc1; Dihydroorotyl(S) = O=C1C[C@@H](C(=O)*)NC(=O)N1; dPhe(4-Cl) = N[C@H](Cc1ccc(Cl)cc1)C(=O)O; Phe(4-NH2) = Nc1ccc(C[C@H](N)C(=O)O)cc1; d2Nal = N[C@H](Cc1ccc2ccccc2c1)C(=O)O; Lys(iPr) = CC(C)NCCCC[C@H](N)C(=O)O; d3Pal = N[C@H](Cc1cccnc1)C(=O)O
Parameter measured: dose excreted

Determine its reported dose excreted: CC(=O)N[C@H](Cc1ccc2ccccc2c1)C(=O)N[C@H](Cc1ccc(Cl)cc1)C(=O)N[C@H](Cc1cccnc1)C(=O)N[C@@H](CO)C(=O)N[C@@H](Cc1ccc(NC(=O)[C@@H]2CC(=O)NC(=O)N2)cc1)C(=O)N[C@H](Cc1ccc(NC(N)=O)cc1)C(=O)N[C@@H](CC(C)C)C(=O)N[C@@H](CCCCNC(C)C)C(=O)N1CCC[C@H]1C(=O)N[C@H](C)C(N)=O [degarelix] (Ac-[d2Nal][dPhe(4-Cl)][d3Pal]S[Phe(4-NH2)](Dihydroorotyl(S))[dPhe(4-NHCONH2)]L[Lys(iPr)]P[dA]-NH2)
~20%

----------
Test: clinical
Design: species or system human
Conditions: male, human, in vivo
Square brackets hold non-standard residues; d marks the D form. Peptide text beside a SMILES is read from it. * marks the point of attachment. dPhe(4-NHCONH2) = NC(=O)Nc1ccc(C[C@@H](N)C(=O)O)cc1; Dihydroorotyl(S) = O=C1C[C@@H](C(=O)*)NC(=O)N1; dPhe(4-Cl) = N[C@H](Cc1ccc(Cl)cc1)C(=O)O; Phe(4-NH2) = Nc1ccc(C[C@H](N)C(=O)O)cc1; d2Nal = N[C@H](Cc1ccc2ccccc2c1)C(=O)O; Lys(iPr) = CC(C)NCCCC[C@H](N)C(=O)O; d3Pal = N[C@H](Cc1cccnc1)C(=O)O
Parameter measured: clearance

Determine its reported clearance: CC(=O)N[C@H](Cc1ccc2ccccc2c1)C(=O)N[C@H](Cc1ccc(Cl)cc1)C(=O)N[C@H](Cc1cccnc1)C(=O)N[C@@H](CO)C(=O)N[C@@H](Cc1ccc(NC(=O)[C@@H]2CC(=O)NC(=O)N2)cc1)C(=O)N[C@H](Cc1ccc(NC(N)=O)cc1)C(=O)N[C@@H](CC(C)C)C(=O)N[C@@H](CCCCNC(C)C)C(=O)N1CCC[C@H]1C(=O)N[C@H](C)C(N)=O [degarelix] (Ac-[d2Nal][dPhe(4-Cl)][d3Pal]S[Phe(4-NH2)](Dihydroorotyl(S))[dPhe(4-NHCONH2)]L[Lys(iPr)]P[dA]-NH2)
0.583 to 0.833 mL/min/kg
